Target: CYP2C19 (Homo sapiens, UniProt P33261)
Construct: 0.1 mg/mL protein human liver microsomes (BD Gentest); tissue BD Gentest; host or cells: human liver microsomes
Sequence (P33261 whole entry): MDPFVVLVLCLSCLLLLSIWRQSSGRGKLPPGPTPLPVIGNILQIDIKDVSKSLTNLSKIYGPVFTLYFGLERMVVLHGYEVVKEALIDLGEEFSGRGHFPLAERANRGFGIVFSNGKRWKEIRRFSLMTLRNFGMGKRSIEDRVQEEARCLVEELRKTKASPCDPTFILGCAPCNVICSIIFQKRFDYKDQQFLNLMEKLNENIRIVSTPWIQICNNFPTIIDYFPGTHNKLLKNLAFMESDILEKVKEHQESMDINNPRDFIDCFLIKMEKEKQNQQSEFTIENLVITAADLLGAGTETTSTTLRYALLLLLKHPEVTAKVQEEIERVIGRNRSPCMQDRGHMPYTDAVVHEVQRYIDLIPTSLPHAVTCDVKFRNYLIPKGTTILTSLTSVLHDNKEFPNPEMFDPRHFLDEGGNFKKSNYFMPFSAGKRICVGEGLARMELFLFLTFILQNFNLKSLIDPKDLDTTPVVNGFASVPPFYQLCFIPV
Test: Cocktail assay for CYPs in human liver microsomes: CYP2C19 (mephenytoin 4′-hydroxylation)
Type: biochemical
Conditions: human liver microsomes 0.1 mg/mL, 30 μM mephenytoin, 10 min at 37° C., 6 concentrations up to 10 μM; read-out: IC50 (nM) CYP2C19
ENDPOINT NAME: IC50 (nM)
Lab book: enter the figure in nM, no units written.

Q: Param readout= IC50; system= CYP2C19 (Homo sapiens, UniProt P33261); entry= CCCC1(C#N)CCN(Cc2cncn2[C@H](C)c2ccc(F)cc2)CC1 [Compound 6] ; returns value.
Ans: 7920

Q: And for C[C@H](c1ccc(F)cc1)n1cncc1CN1CCN(Cc2ccccc2)C(=O)C1 [Compound 61] ?
Ans: 1620

Q: And for CCc1noc(C2(C)CCN(Cc3cncn3[C@H](C)c3ccc(F)cc3)CC2)n1 [Compound 9] ?
Ans: 2270

Q: And for C[C@H](c1ccc(F)cc1)n1cncc1CN1CCN(c2ccccc2)[C@H](C(=O)N2CCCCC2)C1 [Compound 48] ?
Ans: 2000

Q: And for CC(c1ccccc1-c1ccc(F)cc1)n1cncc1CN1CCC(F)(F)C1 (centres unmarked) [Compound 16] ?
Ans: 4270

Q: And for Cc1cc(C(=O)N2CCN(Cc3cncn3[C@H](C)c3ccc(F)cc3)CC2c2ccccc2)no1 (some centres unmarked) [Compound 49] ?
Ans: 2110
